Assay: Pharmacokinetic study in mice (intragastric and intravenous)
Format: in vivo, ICR mice
Conditions: male, ICR, mouse, plasma, iv, i.v. (2 mg/kg), read-out: Area under the curve AUC
measured property: AUC (ng·h/mL)

>>> df
                                   compound  measured_property  reading
0  CCN1CCN(Cc2ccc(Nc3ncc(F)c(-c4cc(F)c5nc(C)n(C(C)C)c5c4)n3)nc2)CC1 [LY2835219]                AUC      674

* * *

Target: CDK6/D3 (Homo sapiens (Human))
Experiment: CDKs inhibition assay (ADP-Glo Kinase Assay), CDK6
Conditions: smaller value = better selectivity for CDK6
Reported Ratio IC50 (CDK6)/IC50 (CDK1) by item:
measured property: Ratio IC50 (CDK6)/IC50 (CDK1)

In [3]: df
Out[3]:
                                   compound  reading
0  C[C@H]1CN(Cc2ccc(Nc3ncc(F)c(-c4cc(F)c5nc6n(c5c4)C(C)(C)CC6)n3)nc2)CCN1C [Example 47]    0.004
1  CN1CCN(c2ccc(Nc3ncc(F)c(-c4cc(F)c5nc6n(c5c4)C(C)(C)CC6)n3)nc2)CC1 [Example 43]   0.0004
2  CC1CN(c2ccc(Nc3ncc(F)c(-c4cc(F)c5nc6n(c5c4)C(C)(C)CC6)n3)nc2)CC(C)N1 (stereo not shown) [Example 74]    0.006
3  Cc1nc(Nc2ncc(F)c(-c3cc(F)c4nc5n(c4c3)C(C)(C)CC5)n2)ccc1CC1CCNCC1 [Example 30]    0.016

* * *

Target: CDK6/D3 (Homo sapiens (Human), UniProt Q00534)
Sequence (Q00534 whole entry): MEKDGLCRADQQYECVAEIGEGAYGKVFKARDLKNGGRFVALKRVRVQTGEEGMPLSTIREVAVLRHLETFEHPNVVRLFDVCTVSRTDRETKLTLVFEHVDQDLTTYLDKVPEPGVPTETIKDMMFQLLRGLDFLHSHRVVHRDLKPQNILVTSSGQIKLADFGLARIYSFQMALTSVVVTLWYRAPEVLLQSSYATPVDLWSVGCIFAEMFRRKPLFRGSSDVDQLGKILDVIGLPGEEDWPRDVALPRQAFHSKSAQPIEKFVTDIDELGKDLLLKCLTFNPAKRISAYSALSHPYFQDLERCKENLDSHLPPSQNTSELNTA
Sequence (P30281 whole entry partner): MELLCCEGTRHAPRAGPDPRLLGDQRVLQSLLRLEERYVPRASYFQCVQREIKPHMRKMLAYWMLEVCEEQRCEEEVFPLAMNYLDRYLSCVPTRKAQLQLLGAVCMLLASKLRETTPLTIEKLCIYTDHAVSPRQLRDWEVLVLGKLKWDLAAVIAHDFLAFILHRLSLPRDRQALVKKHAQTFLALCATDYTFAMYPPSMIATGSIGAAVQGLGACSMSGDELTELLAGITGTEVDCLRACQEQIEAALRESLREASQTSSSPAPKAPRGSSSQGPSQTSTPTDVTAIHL
Assay: CDKs inhibition assay (ADP-Glo Kinase Assay), CDK6
pIC50: −log10 of the molar value.
measured property: pIC50

>>> df
                                   compound  reading
0  Fc1cnc(Nc2ccc(N3CCNCC3)cn2)nc1-c1cc(F)c2nc3n(c2c1)CCCC3     7.20
1  CCC1CCc2nc3c(F)cc(-c4nc(Nc5ccc(C6CCN(C)CC6)cn5)ncc4F)cc3n21 (centres unmarked)     8.22
2  CCN1CCN(C(=O)c2ccc(Nc3ncc(F)c(-c4cc(F)c5nc6n(c5c4)C(C)(C)CC6)n3)nc2)CC1     7.89
3  Cc1nc(Nc2ncc(F)c(-c3cc(F)c4nc5n(c4c3)C(C)(C)CC5)n2)ccc1N1CCNCC1     7.26
4  CC1Cc2nc3c(F)cc(-c4nc(Nc5ccc(N6CCNCC6)cn5)ncc4F)cc3n2C1 (centres unmarked)     6.43
5  CN1CCN(c2ccc(Nc3ncc(F)c(-c4cc(F)c5nc6n(c5c4)C(C)(C)CC6)n3)nc2)CC1     9.52
6  CCN1CCC(Oc2ccc(Nc3ncc(F)c(-c4cc(F)c5nc6n(c5c4)C(C)(C)CC6)n3)nc2)CC1     8.12
7  CC1CCc2nc3c(F)cc(-c4nc(Nc5ccc6c(n5)CCN(C(=O)CO)C6)ncc4F)cc3n21 (centres unmarked)     7.33

* * *

Target: CDK4/D3 (Homo sapiens (Human))
Sequence (P11802 whole entry): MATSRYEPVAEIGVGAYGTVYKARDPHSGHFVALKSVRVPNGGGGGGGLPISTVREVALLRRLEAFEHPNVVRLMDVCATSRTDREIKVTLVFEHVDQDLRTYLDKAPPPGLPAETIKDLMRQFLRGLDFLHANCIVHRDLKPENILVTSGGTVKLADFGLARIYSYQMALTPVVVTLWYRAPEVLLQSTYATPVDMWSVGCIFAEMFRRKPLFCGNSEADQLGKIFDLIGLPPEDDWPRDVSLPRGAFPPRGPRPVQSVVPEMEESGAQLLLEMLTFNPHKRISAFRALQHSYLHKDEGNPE
Sequence (P30281 whole entry partner): as the sequence (P30281 whole entry partner) above
Assay: CDKs inhibition assay (ADP-Glo Kinase Assay), CDK4
measured property: IC50 (nM)

>>> print(df.to_string())
                                   compound  unit_abbreviation  reading
0  CCN1CCC(c2ccc(Nc3ncc(F)c(-c4cc(F)c5nc6n(c5c4)C(C)(C)CC6)n3)nc2)CC1                 nM        7
1  CC1CN(c2ccc(Nc3ncc(F)c(-c4cc(F)c5nc6n(c5c4)C(C)(C)CC6)n3)nc2)CC(C)N1 (centres unmarked)                 nM     0.28
2  CC1CCc2nc3c(F)cc(-c4nc(Nc5ccc(C6CCN(C)CC6)cn5)ncc4F)cc3n21 (centres unmarked)                 nM      4.3
3  CC1(C)CCc2nc3c(F)cc(-c4nc(Nc5ccc(OC6CCNCC6)cn5)ncc4F)cc3n21                 nM      3.9
4  Cc1nc(Nc2ncc(F)c(-c3cc(F)c4nc5n(c4c3)C(C)(C)CC5)n2)ccc1N1CCNCC1                 nM        2
